- TEST_TARGET: UniProtKB Q00975
- Sequence (Q00975 whole entry): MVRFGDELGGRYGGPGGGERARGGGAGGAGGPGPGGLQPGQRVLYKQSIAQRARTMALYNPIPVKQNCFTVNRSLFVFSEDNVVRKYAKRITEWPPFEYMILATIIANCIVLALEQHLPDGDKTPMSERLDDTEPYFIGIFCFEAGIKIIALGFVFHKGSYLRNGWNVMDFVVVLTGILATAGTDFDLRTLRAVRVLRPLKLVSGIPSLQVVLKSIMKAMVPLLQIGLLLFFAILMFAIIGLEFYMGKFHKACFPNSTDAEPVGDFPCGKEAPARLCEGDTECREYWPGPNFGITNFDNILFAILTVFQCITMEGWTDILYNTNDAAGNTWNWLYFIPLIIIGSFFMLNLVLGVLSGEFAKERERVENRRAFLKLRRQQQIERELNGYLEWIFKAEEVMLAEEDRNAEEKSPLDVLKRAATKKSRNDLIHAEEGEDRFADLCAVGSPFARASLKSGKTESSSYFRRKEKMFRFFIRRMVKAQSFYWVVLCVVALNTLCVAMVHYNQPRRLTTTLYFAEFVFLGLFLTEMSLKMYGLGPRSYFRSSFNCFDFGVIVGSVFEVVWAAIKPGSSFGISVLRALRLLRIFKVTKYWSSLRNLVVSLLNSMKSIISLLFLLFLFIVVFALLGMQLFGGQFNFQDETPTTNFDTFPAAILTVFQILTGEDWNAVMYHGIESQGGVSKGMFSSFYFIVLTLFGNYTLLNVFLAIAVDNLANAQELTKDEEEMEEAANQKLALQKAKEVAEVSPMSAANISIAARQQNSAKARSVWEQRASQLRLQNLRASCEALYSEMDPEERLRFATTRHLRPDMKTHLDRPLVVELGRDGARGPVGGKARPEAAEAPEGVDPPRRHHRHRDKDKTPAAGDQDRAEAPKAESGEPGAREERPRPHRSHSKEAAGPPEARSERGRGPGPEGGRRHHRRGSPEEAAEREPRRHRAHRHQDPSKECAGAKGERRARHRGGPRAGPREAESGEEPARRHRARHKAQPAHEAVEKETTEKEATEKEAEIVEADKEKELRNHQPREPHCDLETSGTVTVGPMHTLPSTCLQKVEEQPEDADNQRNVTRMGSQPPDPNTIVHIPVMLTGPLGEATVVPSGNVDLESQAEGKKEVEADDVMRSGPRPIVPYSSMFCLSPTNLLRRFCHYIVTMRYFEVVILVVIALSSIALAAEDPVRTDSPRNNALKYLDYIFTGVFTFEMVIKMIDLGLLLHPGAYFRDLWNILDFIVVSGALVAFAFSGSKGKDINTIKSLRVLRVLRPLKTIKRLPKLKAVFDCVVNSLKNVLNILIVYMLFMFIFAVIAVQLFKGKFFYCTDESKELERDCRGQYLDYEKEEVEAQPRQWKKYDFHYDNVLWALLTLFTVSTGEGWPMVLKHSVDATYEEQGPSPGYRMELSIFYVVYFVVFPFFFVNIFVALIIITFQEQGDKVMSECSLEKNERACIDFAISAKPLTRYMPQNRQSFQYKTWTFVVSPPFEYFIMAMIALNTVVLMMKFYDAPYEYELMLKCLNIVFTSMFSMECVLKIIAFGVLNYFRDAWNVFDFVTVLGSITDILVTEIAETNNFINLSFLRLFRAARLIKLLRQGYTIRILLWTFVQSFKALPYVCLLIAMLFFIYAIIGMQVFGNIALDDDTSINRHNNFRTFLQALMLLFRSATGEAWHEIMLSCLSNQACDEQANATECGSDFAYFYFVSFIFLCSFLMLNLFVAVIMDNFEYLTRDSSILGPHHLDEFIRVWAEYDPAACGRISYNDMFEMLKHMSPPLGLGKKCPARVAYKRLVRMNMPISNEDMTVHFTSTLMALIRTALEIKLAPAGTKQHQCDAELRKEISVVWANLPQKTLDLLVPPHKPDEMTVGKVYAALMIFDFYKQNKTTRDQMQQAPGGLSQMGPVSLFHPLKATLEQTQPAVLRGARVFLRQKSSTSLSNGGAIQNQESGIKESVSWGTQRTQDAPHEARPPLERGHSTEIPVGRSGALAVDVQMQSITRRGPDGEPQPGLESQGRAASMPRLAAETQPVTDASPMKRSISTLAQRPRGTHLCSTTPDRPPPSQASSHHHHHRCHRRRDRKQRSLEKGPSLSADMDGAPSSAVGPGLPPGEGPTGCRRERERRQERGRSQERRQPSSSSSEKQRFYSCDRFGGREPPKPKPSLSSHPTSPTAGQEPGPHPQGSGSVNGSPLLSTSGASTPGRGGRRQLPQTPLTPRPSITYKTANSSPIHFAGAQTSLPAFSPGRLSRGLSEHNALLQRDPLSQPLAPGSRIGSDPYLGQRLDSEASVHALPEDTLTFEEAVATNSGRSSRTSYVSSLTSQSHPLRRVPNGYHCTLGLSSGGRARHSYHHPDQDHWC
- Sequence (P54289 25-956 partner limits assumed): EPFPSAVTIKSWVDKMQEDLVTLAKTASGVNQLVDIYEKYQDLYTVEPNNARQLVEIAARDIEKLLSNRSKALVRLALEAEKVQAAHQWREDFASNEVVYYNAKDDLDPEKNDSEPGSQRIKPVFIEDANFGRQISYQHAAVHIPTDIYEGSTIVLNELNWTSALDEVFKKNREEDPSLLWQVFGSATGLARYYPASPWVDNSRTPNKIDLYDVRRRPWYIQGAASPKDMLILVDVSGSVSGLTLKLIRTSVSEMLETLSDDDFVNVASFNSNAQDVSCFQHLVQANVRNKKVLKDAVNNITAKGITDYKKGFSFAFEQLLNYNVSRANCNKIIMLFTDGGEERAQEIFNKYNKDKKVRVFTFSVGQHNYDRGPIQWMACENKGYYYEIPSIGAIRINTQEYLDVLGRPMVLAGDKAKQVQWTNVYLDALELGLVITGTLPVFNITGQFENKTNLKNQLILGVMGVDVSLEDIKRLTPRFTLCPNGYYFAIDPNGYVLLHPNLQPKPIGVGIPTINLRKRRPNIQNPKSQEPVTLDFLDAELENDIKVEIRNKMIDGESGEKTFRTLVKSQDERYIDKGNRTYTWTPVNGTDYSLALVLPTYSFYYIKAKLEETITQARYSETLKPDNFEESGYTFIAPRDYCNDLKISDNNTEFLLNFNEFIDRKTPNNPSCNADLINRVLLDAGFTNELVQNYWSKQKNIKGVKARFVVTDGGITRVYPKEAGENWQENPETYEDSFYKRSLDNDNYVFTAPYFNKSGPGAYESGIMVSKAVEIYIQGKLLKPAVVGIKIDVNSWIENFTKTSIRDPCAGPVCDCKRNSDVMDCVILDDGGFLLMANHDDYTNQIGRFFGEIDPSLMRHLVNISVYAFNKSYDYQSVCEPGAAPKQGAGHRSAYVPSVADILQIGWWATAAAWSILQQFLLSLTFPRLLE
- Sequence (P54289 957-1103 partner limits assumed): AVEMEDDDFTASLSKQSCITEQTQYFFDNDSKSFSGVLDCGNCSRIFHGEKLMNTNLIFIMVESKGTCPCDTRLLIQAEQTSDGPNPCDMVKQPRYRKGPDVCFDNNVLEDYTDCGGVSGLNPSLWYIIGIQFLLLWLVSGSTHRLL
- Sequence (P54284 whole entry partner): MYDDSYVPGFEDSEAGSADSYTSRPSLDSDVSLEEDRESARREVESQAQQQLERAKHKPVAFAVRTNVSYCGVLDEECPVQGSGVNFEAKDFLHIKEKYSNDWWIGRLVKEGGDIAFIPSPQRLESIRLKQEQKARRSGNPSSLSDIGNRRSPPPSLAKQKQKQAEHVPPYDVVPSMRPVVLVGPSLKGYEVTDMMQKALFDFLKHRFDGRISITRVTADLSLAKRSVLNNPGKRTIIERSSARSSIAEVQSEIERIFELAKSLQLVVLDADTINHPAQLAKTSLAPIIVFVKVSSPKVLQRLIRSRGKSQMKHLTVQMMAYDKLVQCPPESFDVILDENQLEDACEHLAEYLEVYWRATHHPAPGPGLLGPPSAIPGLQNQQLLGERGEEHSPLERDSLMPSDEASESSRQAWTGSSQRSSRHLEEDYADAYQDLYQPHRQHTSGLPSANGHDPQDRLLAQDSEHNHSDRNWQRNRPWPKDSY
- ASSAY_REMARKS: Assessment of calcium channel activity using FLIPR (Ca2+ influx in IMR32 cells)
- Format: cell-based
READOUT_TYPE: IC50 (µM)

[[record]]
structure_as_smiles = "CN[C@H](C(=O)N[C@H]1CC[C@@H]2CN(c3cccc(C(F)(F)F)n3)C[C@@H]21)C(C)C"
readout_type = "IC50"
unit_info = "µM"
value = 0.95

[[record]]
structure_as_smiles = "CN[C@@H](CC(C)C)C(=O)N[C@H]1CC[C@@H]2CN(c3ccc(C#N)cc3)C[C@@H]21"
readout_type = "IC50"
unit_info = "µM"
value = 3.77

[[record]]
structure_as_smiles = "O=C(N[C@H]1CC[C@@H]2CN(c3ccccc3Cl)C[C@@H]21)[C@@H]1C[C@@H](F)CN1"
readout_type = "IC50"
unit_info = "µM"
value = 6.85

[[record]]
structure_as_smiles = "CC(C)(C)C[C@H](N)C(=O)N[C@H]1CC[C@@H]2CN(S(=O)(=O)c3cccc(C(F)(F)F)c3)C[C@@H]21"
readout_type = "IC50"
unit_info = "µM"
value = 0.95


P = Cc1n[nH]cc1CN[C@H]1CC[C@@H]2CN(c3cccc(C(F)(F)F)n3)C[C@@H]21
Q = Cc1nc(CN[C@H]2CC[C@@H]3CN(c4cccc(C(F)(F)F)n4)C[C@@H]32)c[nH]1
Pick one: P or Q . Which has the bigger IC50 number? Write the label of whichever entry you select.
Q
(Q: 4.2 µM, P: 2.55 µM)

Ref: patent US8691865B2
